Some sequences, each annotated with its measured protein stability index.
# Test system: Saccharomyces cerevisiae
# PROCEDURE SUMMARY: protein stability index of tFT-peptide fusion (C-terminal peptide) (PSI (0-1 scale)); higher = more stable (slower turnover)
# CONDITION NOTES: genetic background: das1 deletion; temperature: 30 C
Reply with just the number.

Example entries and their recorded answers appear below.
ordered_residues="KKKRGFLGLFGR [SRP68 C-terminal 12 aa]" reported_result=0.706
ordered_residues="FSRASCITVWLV [YPR160C-A C-terminal 12 aa]" reported_result=0.628
ordered_residues="KEDKKKKSSNCC [YPT32 C-terminal 12 aa]" reported_result=0.704
ordered_residues="IKRLDANTDFNI [MFB1 C-terminal 12 aa]" reported_result=0.678
ordered_residues="PFPQKHRDNHLV [YOR053W C-terminal 12 aa]" reported_result=0.701

*Q* Request the reported protein stability index associated with AMDYAISIENIV [RPN12 C-terminal 12 aa]
*A* 0.665

*Q* // query: QLKLLNALDSVD [YDR537C C-terminal 12 aa]
*A* 0.696

*Q* // query: KIEHVDDETRTH [PEX13 C-terminal 12 aa]
*A* 0.699

*Q* // query: WYEDEDSGDDDM [DML1 C-terminal 12 aa]
*A* 0.698

*Q* // query: DAIDNSDEITQD [IRR1 C-terminal 12 aa]
*A* 0.709

*Q* // query: YNSGTEGTRFQI [TAR1 C-terminal 12 aa]
*A* 0.707

*Q* // query: EIDGQFCIFQVV [YJL107C C-terminal 12 aa]
*A* 0.711

*Q* // query: IRLDGENNSCSC [YPT7 C-terminal 12 aa]
*A* 0.692

*Q* // query: KGRYVNSSKRRS [NOB1 C-terminal 12 aa]
*A* 0.696

*Q* // query: AQGGFAQWATGQ [APS3 C-terminal 12 aa]
*A* 0.718

*Q* // query: NTAGQKPTEYHY [APA2 C-terminal 12 aa]
*A* 0.72

*Q* // query: YAYMLYYERVNK [UBP16 C-terminal 12 aa]
*A* 0.675

*Q* // query: SLRPQERNLYGL [NTH1 C-terminal 12 aa]
*A* 0.691

###

# System: Saccharomyces cerevisiae
# PROCEDURE SUMMARY: protein stability index of tFT-peptide fusion in deletion strain of DAS1 (PSI (0-1 scale)); higher = more stable (slower turnover)
Is protein stability index at least 0.6? Then class 1. If not, class 0.

Check out these entries, answers already filled in.
ordered_residues=ARWRMGLWRGAS target_under_test="Saccharomyces cerevisiae" class="class 1"
ordered_residues=ARWRVGLWRGAD target_under_test="Saccharomyces cerevisiae" class="class 1"
ordered_residues=VRGAQGGWRLVG target_under_test="Saccharomyces cerevisiae" class="class 1"

*Q* API: above_or_equal(metric=protein stability index, cutoff=0.6) for item CTSCGYEFRTNN
*A* class 1

*Q* // query: DSLAASFWRVVG
*A* class 1

*Q* // query: PSLAASFWRGVG
*A* class 1

*Q* // query: CTSCGYKFRTPN
*A* class 1

*Q* // query: PSLAASFWRVVGR
*A* class 1

*Q* // query: PDKRNHLEKLLN
*A* class 1

*Q* // query: VRGAVGGWRLFG
*A* class 1

*Q* // query: CTSCGYKFRTNNR
*A* class 1

*Q* // query: LVVYLSGVACIN
*A* class 0

*Q* // query: PSLAADFWRVVG
*A* class 1

*Q* // query: FSMRWTFRYWVQ
*A* class 0

*Q* // query: FSMWWTFRYWVN
*A* class 0

*Q* // query: PSLAHSFWRVVG
*A* class 1

*Q* // query: PSLAISFWRVVG
*A* class 1

*Q* // query: LVVHLSCVACIN
*A* class 0

*Q* // query: LVVYLNCVACIN
*A* class 0

*Q* // query: KKHKKGQKQKIK
*A* class 0

*Q* // query: PSMRWTFRYWVN
*A* class 0

*Q* // query: ARWRVGLWGGAS
*A* class 1

*Q* // query: LVVYDSCVACIN
*A* class 0
